Would you kindly list IC50 for each of these molecules?
- ASSAY_TARGET: angiotensin II AT1 receptor
- TEST_DETAILS: Assay A: Angiotensin II binding activity, rat uterine membrane preparation, 125I-AII displacement
Answers are plain numbers, in nM.

Exam item: Given `CCCCn1nc(CCc2ccccc2)nc1Cc1ccc(-c2ccccc2-c2nnn[nH]2)nc1` , respond with its IC50.
Marked response: 380

Exam item: Given `CCCCc1nc(Cl)c(Cl)n1Cc1ccc(-n2cccc2C(=O)O)cc1` , respond with its IC50.
Marked response: 54

Exam item: Given `CCCCc1nc(CCc2ccccc2)nn1Cc1ccc(-c2ccccc2-c2nnn[nH]2)cc1` , respond with its IC50.
Marked response: 340

Exam item: Given CCCCc1nn(CC(O)c2cc(OC)ccc2OC)c(=O)n1Cc1ccc(-c2ccccc2-c2nn[nH]n2)cc1 (stereo not drawn) , respond with its IC50.
Marked response: 250

Exam item: Given CCCCn1nc(C(C#N)CCC)n(Cc2ccc(-c3ccccc3-c3nn[nH]n3)cc2)c1=O (stereo not drawn) , respond with its IC50.
Marked response: 170

Exam item: Given `CCCCc1nn(CC(=O)c2cc(OC)ccc2OC)c(=O)n1Cc1ccc(-c2ccccc2-c2nn[nH]n2)cc1` , respond with its IC50.
Marked response: 180

Exam item: Given `CCCCc1cn([C@H]2[C@H](C)CCC[C@@H]2C)c(=O)n1Cc1ccc(-c2ccccc2-c2nnn[nH]2)nc1` , respond with its IC50.
Marked response: 9.4

Exam item: Given `CCCCc1cn(-c2c(C)cccc2Cl)c(=O)n1Cc1ccc(-c2ccccc2-c2nnn[nH]2)nc1` , respond with its IC50.
Marked response: 110

Report IC50 for each item below.
1. CCCc1cn(CCC)c(=O)n1Cc1ccc(-c2ccccc2-c2nnn[nH]2)cc1
2. CCCCc1cn(CCCC)c(=O)n1Cc1ccc(-c2ccccc2-c2nnn[nH]2)nc1
3. CCCCc1cn(-c2ccccc2OC)c(=O)n1Cc1ccc(-c2ccccc2-c2nnn[nH]2)nc1
4. CCCCc1nc(CC)n(Cc2ccc(-c3ccccc3-c3nnn[nH]3)cc2)n1
5. CCCCc1nc(CCc2ccccc2)n(Cc2ccc(-c3ccccc3-c3nnn[nH]3)cc2)n1
6. CCCCn1nc(C(O)CCC)nc1Cc1ccc(-c2ccccc2-c2nnn[nH]2)nc1 (stereo not drawn)
7. CCCCc1nc(C(F)(F)CCC)nn1Cc1ccc(-c2ccccc2-c2nnn[nH]2)nc1
8. CCCCc1nc(C(F)F)nn1Cc1ccc(-c2ccccc2-c2nnn[nH]2)cc1

Marked response:
1. 1.1
2. 31
3. 19
4. 8.7
5. 1400
6. 26
7. 350
8. 140
